measuredQuantity: melting point

Check out these entries, answers already filled in.
COc1cc(/C=C/C(=O)C23CC4CC(CC(C4)C2)C3)cc(OC)c1    118 to 119 °C
O=C(/C=C/c1cnc2ccccc2c1)C12CC3CC(CC(C3)C1)C2    169 to 171 °C
O=C(/C=C/c1cnc2ccccc2c1)C1CC1    101 to 102 °C
COc1ccc(/C=C/C(=O)C23CC4CC(CC(C4)C2)C3)cc1C    138 to 140 °C

# ---- query compound ----
The value of melting point measured for the compound `O=C(/C=C/c1ccc2c(c1)OCCO2)C12CC3CC(CC(C3)C1)C2` turned out to be 125 to 127 °C
